Source listed as the nanobody polyreactivity screen of Harvey et al. (2022).

experiment: yeast display, Sf9 membrane polyspecificity reagent, FACS + sequencing; frameworks hold sequencing errors
Measure: polyreactivity (PSR sort gate)

INSERT INTO results (sequence_text, data_value) VALUES
  ('QDQLVESGGGLVQAGGSLRLSCAASGRTFWAYAMGWYRQAPGKEREVVASIRSSGTSTYYADSVMGRFTISRDNAKNSVYLQMNSLKPEDTAVYYCAATSGYARYYHREYWGQGTQVTVSS', 'high polyreactivity'),
  ('QVQLVESGGGLVQAGGSLRLSCAASGFTFYLYAMGWYRQAPGKERELVAAISSGGSTNYADSVKGRFTISRDNAKNTVYLQMNSLKPEDTAVYYCNKRYRRATWWITAYDHWGQGTQVTVSS', 'high polyreactivity'),
  ('QVQLVESGGGLVQAGGSLPLSCAASGRTFDANAMGWSRQAPGKERELVAAISSDGSTNYADSVKGRFTISRDNAKNTVYLQMNSLKPEDTAVYYCATDGKPLIRYDYDYWGQGTQVTVSW', 'high polyreactivity'),
  ('QVQLVESGGGLVQAGGSLRLSCAASGLTFYYYVMGWYRQAPGKEREFVAAISRSGGSTYYADSVKGRFTISRDNAKNTVYLQMNSLKPEDTAVYYCASYTHDFGYKYWGQGTQVTVSS', 'high polyreactivity'),
  ('QVQLVESGGGLVQAGRSLRLSCAASGTTFVIYDMGWSRQAPGKERDLVAGNSYSGGSTYYADSVKGRFTISRDNAKNTVYLQMNSLKPEDTAVYYCNAGVLVLLYAYLPSDLEYWGQGTQVTVSS', 'low polyreactivity'),
  ('QVQLVESGGGLVQAGGSLRLSCAASGSTFYYYAMGWYRQAPGKERELFATINKNVGITYYADSVKGRFTISRDNAKNTVYLQRNSMKTEVTAVDYCAAHGRINPDGPRTVFFASEEDYWGQGTQVTVSS', 'low polyreactivity');

Which polyreactivity (PSR sort gate) is reported for this sequence? QVQLVESGGGLDQAGGRLRLSCAAYGSTFELYAMGWYRQAPGKERELVASITGDSTNYADSVKGRFTISRDNAKNTVYLQMNSLKPEDTAVYYCAAEYVPYYEYESWGQGTQVTVSS low polyreactivity

Which polyreactivity (PSR sort gate) is reported for this sequence? QVQLVESGGGLVQAGGSLRLSCAASGIIFATYAMGWYRQAPGKERELVASISTGDSTNYADSVKGRFTISRDNAKNTVYLQMNSLKPEDTAVDYCNADSYPYYVYGSNDYWGQGTQVTVSS low polyreactivity

Which polyreactivity (PSR sort gate) is reported for this sequence? QVQLVESGGGLVQAGGSLRLSCAASGITSKQYAMVWYRQAPGKERELVAAISGSGTRTYYADSVKGRFTISRDNAKNTVNLQMNSLKPEDTAVYYCAAYGYSRCHDDWGQVTQVTVSS high polyreactivity
